All values here come from patent US6046217A.

target: COX-2 (Homo sapiens); assay: cell-based; settings: CHO[hCOX-2] cells, 10 μM AA, 15 min preincubation; read-out: COX-2 (IC50 mM) CHO
Sequence (P35354 18-604): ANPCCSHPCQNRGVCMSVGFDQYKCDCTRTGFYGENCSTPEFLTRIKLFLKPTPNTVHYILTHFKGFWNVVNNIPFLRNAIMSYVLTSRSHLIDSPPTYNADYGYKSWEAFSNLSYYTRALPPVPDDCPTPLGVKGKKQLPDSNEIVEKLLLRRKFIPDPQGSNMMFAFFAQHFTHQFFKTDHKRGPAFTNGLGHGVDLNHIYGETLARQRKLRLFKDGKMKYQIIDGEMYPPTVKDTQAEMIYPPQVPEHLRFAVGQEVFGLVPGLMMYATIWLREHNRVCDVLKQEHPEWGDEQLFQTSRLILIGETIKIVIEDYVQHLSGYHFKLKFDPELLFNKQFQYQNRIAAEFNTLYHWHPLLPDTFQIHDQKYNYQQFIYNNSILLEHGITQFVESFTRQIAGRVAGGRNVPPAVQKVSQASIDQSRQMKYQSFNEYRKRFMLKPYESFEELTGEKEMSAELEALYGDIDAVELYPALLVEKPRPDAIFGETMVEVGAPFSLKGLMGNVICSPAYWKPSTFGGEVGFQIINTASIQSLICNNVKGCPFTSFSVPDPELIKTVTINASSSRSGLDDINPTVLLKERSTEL
endpoint: log10 IC50 (log10 of the value in nM)
Units before log transform: nM; reported quantity: IC50; transform: log10.

1. C[C@H](Oc1ncc(C(F)(F)F)cc1-c1ccc(S(C)(=O)=O)cc1)C(C)(C)O; 2.63
2. C[C@@H](O)[C@@H](C)Oc1ncc(Cl)cc1-c1ccc(S(C)(=O)=O)cc1; 1.85

In: If you can, please state the reported log10 IC50 value of C[C@]1(O)CCC[C@H]1Oc1ncc(C(F)(F)F)cc1-c1ccc(S(N)(=O)=O)cc1 (relative stereo) .
Out: 1.60

In: // lookup log10 IC50 for C[C@H](O)[C@@H](C)Oc1ncc(C(F)(F)F)cc1-c1ccc(S(C)(=O)=O)cc1
Out: 1.78

In: Returns the measured log10 IC50 for the input molecule. Input: C[C@@H](Oc1ncc(Cl)cc1-c1ccc(S(C)(=O)=O)cc1)C(C)(C)O
Out: 1.90

In: Can you look up the measured log10 IC50 of C[C@H](CO)Oc1ncc(C(F)(F)F)cc1-c1ccc(S(C)(=O)=O)cc1 for me?
Out: 1.60

In: Form field: reported log10 IC50 of CCC(O)(CC)[C@H](C)Oc1ncc(C(F)(F)F)cc1-c1ccc(S(C)(=O)=O)cc1
Out: 2.60
